FYI, the data here is from ChEMBL document CHEMBL1127414.

- measured target: Squalene synthase (Rattus norvegicus) (UniProt Q02769)
- Sequence (Q02769 whole entry): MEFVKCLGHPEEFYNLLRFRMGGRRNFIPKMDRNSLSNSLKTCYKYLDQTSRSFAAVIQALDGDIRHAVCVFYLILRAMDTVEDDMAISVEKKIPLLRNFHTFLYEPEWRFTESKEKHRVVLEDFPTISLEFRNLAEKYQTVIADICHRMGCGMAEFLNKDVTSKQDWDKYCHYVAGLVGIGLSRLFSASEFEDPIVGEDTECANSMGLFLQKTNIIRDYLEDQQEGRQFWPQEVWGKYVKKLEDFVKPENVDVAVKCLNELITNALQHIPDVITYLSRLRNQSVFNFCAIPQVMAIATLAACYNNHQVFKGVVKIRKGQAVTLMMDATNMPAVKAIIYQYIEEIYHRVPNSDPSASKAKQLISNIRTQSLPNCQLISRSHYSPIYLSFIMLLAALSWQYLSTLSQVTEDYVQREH
- assay info: Concentration required to inhibit rat liver squalene synthase enzyme relative to control (L-694,599)
parameter: Relative activity
Quick one: just the number, no unit, thanks!

CC[C@H](C)C[C@H](C)CCC(=O)O[C@@H]1[C@@H](O)C2(CCCCCCc3ccccc3)OC(C(=O)O)C(O)(C(=O)O)C1(C(=O)O)O2 (stereo partly drawn)	0.144
C=C(CCC12OC(C(=O)O)C(O)(C(=O)O)C(C(=O)O)(O1)[C@H](OC(=O)NC(C)C)[C@H]2O)[C@@H](OC(C)=O)[C@H](C)Cc1ccccc1 (stereo partly drawn)	0.05

The reported value for C=C(CCC12OC(C(=O)O)C(O)(C(=O)O)C(C(=O)O)(O1)[C@H](OC(=O)OC)[C@H]2O)[C@@H](OC(C)=O)[C@H](C)Cc1ccccc1 (stereo partly drawn) in terms of Relative activity is 0.06
